read-out: Urokinase-type plasminogen activator receptor (uPAR), PLAUR (gene 5329); experiment: BSK_4H_uPAR: BioMAP Diversity Plus: 4H Assay for Urokinase-type plasminogen activator receptor (uPAR) Biomarker Activity (AID 2283030); details: primary human endothelial cells (HUVEC); actives raise or lower the signal
Activity calls are given as the source filed them. Rule for the calls: active = hit-call score of the fitted dose curve at least 0.9, where 1 is the maximum; inactive = score below 0.9.
observationType: AC50

Some entries whose results are on file:
CC1(C)C(C(=O)OC(C#N)c2cccc(Oc3ccccc3)c2)C1(C)C (configuration not stated) = inactive
CCOc1nc(C(Cl)(Cl)Cl)ns1 = inactive
COC(=O)NC(=S)Nc1ccccc1NC(=S)NC(=O)OC = inactive
O=C(Nc1ccccc1-c1ccc(Cl)cc1)c1cccnc1Cl = inactive

Quick one: AC50 for N#Cc1c[nH]cc1-c1cccc2c1OC(F)(F)O2 ?
14.7 µM (active)

Dear colleague, I am looking for the recorded AC50 of the following molecule: Nc1c(Cl)c(F)nc(OCC(=O)O)c1Cl
inactive

I am curious: what AC50 value has been reported for CCSC(=O)N1CCCCCC1 ?
inactive

* * *

read-out: Nuclear factor erythroid 2-related factor 2 (Homo sapiens) (UniProt Q16236); experiment: LTEA_HepaRG_NFE2L2: Life Technologies and Expression Analysis (LTEA) Assay for Nuclear factor erythroid 2-related factor 2 (NFE2L2) Transcription Factor using HepaRG (AID 2283527); conditions: mRNA level, 48 h; actives raise or lower the signal
Sequence (Q16236 whole entry, looked up): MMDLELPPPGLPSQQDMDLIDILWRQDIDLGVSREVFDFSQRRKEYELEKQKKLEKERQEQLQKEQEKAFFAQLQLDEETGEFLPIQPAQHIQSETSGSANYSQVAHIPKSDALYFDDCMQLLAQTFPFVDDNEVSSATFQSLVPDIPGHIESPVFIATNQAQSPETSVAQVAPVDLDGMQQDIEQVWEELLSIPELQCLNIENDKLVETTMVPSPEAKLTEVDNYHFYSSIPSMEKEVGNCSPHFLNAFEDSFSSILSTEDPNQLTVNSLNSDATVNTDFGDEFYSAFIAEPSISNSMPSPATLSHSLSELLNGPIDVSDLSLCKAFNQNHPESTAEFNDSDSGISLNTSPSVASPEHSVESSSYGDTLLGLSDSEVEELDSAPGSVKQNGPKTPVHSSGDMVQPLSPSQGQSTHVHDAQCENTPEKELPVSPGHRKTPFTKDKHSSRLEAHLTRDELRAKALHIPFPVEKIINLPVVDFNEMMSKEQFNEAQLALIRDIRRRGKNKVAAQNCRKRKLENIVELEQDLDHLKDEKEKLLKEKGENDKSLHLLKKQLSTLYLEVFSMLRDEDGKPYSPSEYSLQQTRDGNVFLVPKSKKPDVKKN
Activity calls are given as the source filed them. How the source made its calls: active means hit-call score of the fitted dose curve at least 0.9, where 1 is the maximum; inactive means score below 0.9.
Result category, one only: yes (1) (active), no (0) (inactive)

Answered cases to consult:
COP(=S)(OC)SCn1nnc2ccccc2c1=O = no (0)
N#Cc1c(Cl)cccc1Cl = no (0)
COC(=O)NC(=S)Nc1ccccc1NC(=S)NC(=O)OC = yes (1)
CSC(=O)c1c(C(F)F)nc(C(F)(F)F)c(C(=O)SC)c1CC(C)C = no (0)
N#CN=C1SCCN1Cc1ccc(Cl)nc1 = no (0)

In this assay, the call recorded for COc1cc(OC)nc(NC(=O)NS(=O)(=O)c2ncccc2OCC(F)(F)F)n1 was what?
no (0)

For this molecule, state the assay outcome: CCCCC(C#N)(Cn1cncn1)c1ccc(Cl)cc1 (stereo not given)
no (0)

Outcome logged for CC(C)=CC1C(C(=O)OCc2coc(Cc3ccccc3)c2)C1(C)C (stereo not given) in this assay:
no (0)

Assay result, entry CC1(C)CON(Cc2ccccc2Cl)C1=O — outcome?
no (0)

Short answer needed: outcome of this test for CC(C)N1C(=O)N(c2ccccc2)CSC1=NC(C)(C)C ?
no (0)

* * *

read-out: Interleukin-8 (IL8), CXCL8 (gene 3576); experiment: BSK_SAg_IL8: BioMAP Diversity Plus: SAg Assay for Interleukin-8 (IL8) Biomarker Activity (AID 2283094); conditions: primary human HUVEC with PBMC; actives raise or lower the signal
The source made the active and inactive calls. The calls were made as follows: active = hit-call score of the fitted dose curve at least 0.9, where 1 is the maximum; inactive = score below 0.9.
Please state which outcome applies, choosing from active, inactive

Solved entries (count: 3):
CCOC(=O)C(C)OC(=O)c1cc(Oc2ccc(C(F)(F)F)cc2Cl)ccc1[N+](=O)[O-] (stereo unspecified) = inactive
Cc1nc(N(C)C)nc(OC(=O)N(C)C)c1C = inactive
CC(C)Oc1cccc(NC(=O)c2ccccc2C(F)(F)F)c1 = inactive

Test call for this compound, please: CCC(C)n1c(=O)[nH]c(C)c(Br)c1=O (stereo unspecified)
inactive

Can you look up the reported call for Nc1cnn(-c2ccccc2)c(=O)c1Cl for me?
inactive

Assay result, entry CCNC(=O)NC(=O)C(C#N)=NOC — outcome?
inactive

Field: outcome | Entry: CC(C)N1C(=O)N(c2ccccc2)CSC1=NC(C)(C)C
active

Outcome? O=c1n(Cl)c(=O)n(Cl)c(=O)n1Cl
inactive

Which outcome was entered for the compound N#Cc1c[nH]cc1-c1cccc2c1OC(F)(F)O2 in this test?
active

Please share the test call associated with CN=C=S .
active
